# Experimental Target: BminOR12 (Bactrocera minax, UniProt A0A6H1V5Y2)
# Construct: gene OR12; full-length ORF (415 amino acid residues), GenBank MN855530; with BminOrco
# Sequence (A0A6H1V5Y2 1-415): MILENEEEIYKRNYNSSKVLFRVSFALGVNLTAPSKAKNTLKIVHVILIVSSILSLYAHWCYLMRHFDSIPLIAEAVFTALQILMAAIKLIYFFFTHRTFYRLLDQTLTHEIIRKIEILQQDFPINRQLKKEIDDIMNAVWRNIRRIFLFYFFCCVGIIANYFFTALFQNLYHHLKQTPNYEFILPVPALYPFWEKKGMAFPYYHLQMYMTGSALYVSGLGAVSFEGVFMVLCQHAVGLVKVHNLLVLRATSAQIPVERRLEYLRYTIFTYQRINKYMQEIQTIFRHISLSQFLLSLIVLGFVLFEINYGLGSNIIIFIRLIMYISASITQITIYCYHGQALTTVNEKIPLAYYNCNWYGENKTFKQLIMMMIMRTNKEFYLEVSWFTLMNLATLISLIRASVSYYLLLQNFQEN
# Sequence (A0A3G2LEL3 1-517 partner): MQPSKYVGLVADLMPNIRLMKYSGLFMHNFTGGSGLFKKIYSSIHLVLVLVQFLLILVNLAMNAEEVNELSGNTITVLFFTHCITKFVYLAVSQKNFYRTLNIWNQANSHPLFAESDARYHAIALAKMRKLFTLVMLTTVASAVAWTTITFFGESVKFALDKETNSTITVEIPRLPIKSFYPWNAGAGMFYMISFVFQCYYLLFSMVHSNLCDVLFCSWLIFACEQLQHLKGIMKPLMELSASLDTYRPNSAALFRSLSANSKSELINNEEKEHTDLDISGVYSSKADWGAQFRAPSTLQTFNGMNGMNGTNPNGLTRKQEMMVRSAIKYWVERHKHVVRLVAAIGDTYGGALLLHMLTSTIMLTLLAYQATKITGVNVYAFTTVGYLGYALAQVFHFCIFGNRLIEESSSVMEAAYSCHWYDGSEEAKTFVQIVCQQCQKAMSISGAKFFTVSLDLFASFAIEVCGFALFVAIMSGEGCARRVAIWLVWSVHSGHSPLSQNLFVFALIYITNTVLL
# Test Method Notes: two-electrode voltage clamp in Xenopus oocytes, mean current at […]
# Assay type: cell-based
Parameter: two-electrode voltage clamp in Xenopus oocytes, mean current at 10^-4 M (nA)
Give the value, in units of nA, as a plain number.

What value of two-electrode voltage clamp in Xenopus oocytes, mean current at 10^-4 M has been reported for the following compound? CC/C=C\CCOC(C)=O [compound 43, (Z)-3-hexenyl acetate]
91

Also check C=CC(=O)OCCCC [compound 40, butyl acrylate]
63

And CCCCCCCCO [compound 37, 1-octanol] ?
46

Continue with COC(=O)c1ccccc1O [compound 10, methyl salicylate]
138

Queued: OCc1ccccc1 [compound 16, benzyl alcohol]
33

Moving on to C=C(C)[C@H]1CC=C(C)C(=O)C1 [compound 15, (S)-(+)-carvone]
34

Please give the result for CCCCOC(=O)CC [compound 31, butyl propionate] too.
60

Here is the next compound: O=Cc1ccccc1 [compound 9, benzaldehyde]
94
